Target Entity: PrfA L140H (Listeria monocytogenes, UniProt P22262 1-237, L140H)
Assay Details: SPR
Experimental Conditions: protein: recombinant; tags: His6 removed by TEV, leaves N-terminal GA; chain copies: 2; label: 5'-biotin on strand 1; blunt
pKd: −log10 of the molar value.
Readout Name: pKd

[[record]]
binder = "hpt promoter 40 bp (dsDNA) DNA 1: TTTTGTTTTCTGCATGATAACAAGTGTTAATGACGGAAAG DNA 2: CTTTCCGTCATTAACACTTGTTATCATGCAGAAAACAAAA"
quantitative_result = 6.68

[[record]]
binder = "actA promoter 40 bp (dsDNA) DNA 1: AGTTGGGGTTAACTGATTAACAAATGTTAGAGAAAAATTA DNA 2: TAATTTTTCTCTAACATTTGTTAATCAGTTAACCCCAACT"
quantitative_result = 7.07

[[record]]
binder = "hly promoter 40 bp (dsDNA) DNA 1: CTTTTATGTTGAGGCATTAACATTTGTTAACGACGATAAA DNA 2: TTTATCGTCGTTAACAAATGTTAATGCCTCAACATAAAAG"
quantitative_result = 8.00

